The following binders are shown together with reported pKd values.
measurement-target: recombinant rat VEGF164 (rat) (UniProt P16612)
assay-protocol: Biacore SPR, VEGF immobilized, pH 5
pKd: −log10 of the molar value.
endpoint-name: pKd

[[record]]
binder = "578min_max T84N_V89L_DHP (scFv) scFv: EIVMTQSPSTLSASVGDRVIITCQASEIIHSWLAWYQQKPGKAPKLLIYLASTLASGVPSRFSGSGSGAEFTLTISSLQPDDFATYYCQNVYLASTNGANFGQGTKLTVLGGGGGSGGGGSGGGGSGGGGSEVQLVESGGGSVQPGGSLRLSCTASGFSLTDYYYMTWVRQAPGKGLEWVGFIDPDDDPYYATWAKGRFTISRDNSKNTLYLQMNSLRAEDTATYYCAGGDHNSGWGLDIWGQGTTVTVSS"
measured_number = 8.74

[[record]]
binder = "578minmax (scFv, also called ESBA903; 903) scFv: EIVMTQSPSTLSASVGDRVIITCQASEIIHSWLAWYQQKPGKAPKLLIYLASTLASGVPSRFSGSGSGAEFTLTISSLQPDDFATYYCQNVYLASTNGANFGQGTKLTVLGGGGGSGGGGSGGGGSGGGGSEVQLVESGGGLVQPGGSLRLSCTASGFSLTDYYYMTWVRQAPGKGLEWVGFIDPDDDPYYATWAKGRFTISRDTSKNTVYLQMNSLRAEDTAVYYCAGGDHNSGWGLDIWGQGTLVTVSS"
measured_number = 9.13

[[record]]
binder = "578min_max T84N_V89L (scFv, the VH entry already carries T84N and V89L; tied by name; also called Protein No. 1008) scFv: EIVMTQSPSTLSASVGDRVIITCQASEIIHSWLAWYQQKPGKAPKLLIYLASTLASGVPSRFSGSGSGAEFTLTISSLQPDDFATYYCQNVYLASTNGANFGQGTKLTVLGGGGGSGGGGSGGGGSGGGGSEVQLVESGGGLVQPGGSLRLSCTASGFSLTDYYYMTWVRQAPGKGLEWVGFIDPDDDPYYATWAKGRFTISRDNSKNTLYLQMNSLRAEDTAVYYCAGGDHNSGWGLDIWGQGTLVTVSS"
measured_number = 8.72

